Tested on: P. aeruginosa PA01 (H103)
Assay type: cell-based, Pseudomonas aeruginosa
Settings: H103, 18 h
Non-standard residues stand in square brackets, D forms with d. Residues, ends and D or L forms follow the SMILES beside them. Gly(Nα-4-Cl-benzyl) = O=C(O)CNCc1ccc(Cl)cc1; N(4-Br-benzyl)Gly = O=C(O)CNCc1ccc(Br)cc1; N(4-F-Bzl)Gly = O=C(O)CNCc1ccc(F)cc1; NBzl(4-I)Gly = O=C(O)CNCc1ccc(I)cc1; Nphe = O=C(O)CNCc1ccccc1; Nlys = NCCCCNCC(=O)O
measure: Minimal inhibitory concentration PA^g (µg/mL)

[[record]]
molecule = "NCCCCNCC(=O)N(CC(=O)N(CCCCN)CC(=O)N(CC(=O)N(CCCCN)CC(=O)N(CC(N)=O)Cc1ccc(I)cc1)Cc1ccc(I)cc1)Cc1ccc(I)cc1 [Compound 5] (H-[Nlys][NBzl(4-I)Gly][Nlys][NBzl(4-I)Gly][Nlys][NBzl(4-I)Gly]-NH2)"
unitspec = "µg/mL"
relationsign = ">"
readoutvalue = 512

[[record]]
molecule = "NCCCCNCC(=O)N(CC(=O)N(CCCCN)CC(=O)N(CC(=O)N(CCCCN)CC(=O)N(CC(=O)N(CCCCN)CC(=O)N(CC(N)=O)Cc1ccc(Br)cc1)Cc1ccc(Br)cc1)Cc1ccc(Br)cc1)Cc1ccc(Br)cc1 [Compound 13] (H-[Nlys][N(4-Br-benzyl)Gly][Nlys][N(4-Br-benzyl)Gly][Nlys][N(4-Br-benzyl)Gly][Nlys][N(4-Br-benzyl)Gly]-NH2)"
unitspec = "µg/mL"
relationsign = ">"
readoutvalue = 512

[[record]]
molecule = "NCCCCNCC(=O)N(CC(=O)N(CCCCN)CC(=O)N(CC(=O)N(CCCCN)CC(=O)N(CC(=O)N(CCCCN)CC(=O)N(CC(=O)N(CCCCN)CC(=O)N(CC(N)=O)Cc1ccc(F)cc1)Cc1ccc(F)cc1)Cc1ccc(F)cc1)Cc1ccc(F)cc1)Cc1ccc(F)cc1 [Compound 20] (H-[Nlys][N(4-F-Bzl)Gly][Nlys][N(4-F-Bzl)Gly][Nlys][N(4-F-Bzl)Gly][Nlys][N(4-F-Bzl)Gly][Nlys][N(4-F-Bzl)Gly]-NH2)"
unitspec = "µg/mL"
relationsign = "="
readoutvalue = 256

[[record]]
molecule = "NCCCCNCC(=O)N(CC(=O)N(CCCCN)CC(=O)N(CC(=O)N(CCCCN)CC(=O)N(CC(=O)N(CCCCN)CC(=O)N(CC(N)=O)Cc1ccc(Cl)cc1)Cc1ccccc1)Cc1ccc(Cl)cc1)Cc1ccccc1 [Compound 16] (H-[Nlys][Nphe][Nlys][Gly(Nα-4-Cl-benzyl)][Nlys][Nphe][Nlys][Gly(Nα-4-Cl-benzyl)]-NH2)"
unitspec = "µg/mL"
relationsign = "="
readoutvalue = 512

[[record]]
molecule = "NCCCCNCC(=O)N(CC(=O)N(CCCCN)CC(=O)N(CC(=O)N(CCCCN)CC(=O)N(CC(=O)N(CCCCN)CC(=O)N(CC(=O)N(CCCCN)CC(=O)N(CC(=O)N(CCCCN)CC(=O)N(CC(N)=O)Cc1ccc(Cl)cc1)Cc1ccc(Cl)cc1)Cc1ccc(Cl)cc1)Cc1ccc(Cl)cc1)Cc1ccc(Cl)cc1)Cc1ccc(Cl)cc1 [Compound 30] (H-[Nlys][Gly(Nα-4-Cl-benzyl)][Nlys][Gly(Nα-4-Cl-benzyl)][Nlys][Gly(Nα-4-Cl-benzyl)][Nlys][Gly(Nα-4-Cl-benzyl)][Nlys][Gly(Nα-4-Cl-benzyl)][Nlys][Gly(Nα-4-Cl-benzyl)]-NH2)"
unitspec = "µg/mL"
relationsign = ">"
readoutvalue = 512

[[record]]
molecule = "NCCCCNCC(=O)N(CC(=O)N(CCCCN)CC(=O)N(CC(=O)N(CCCCN)CC(=O)N(CC(=O)N(CCCCN)CC(=O)N(CC(=O)N(CCCCN)CC(=O)N(CC(=O)N(CCCCN)CC(=O)N(CC(N)=O)Cc1ccccc1)Cc1ccccc1)Cc1ccccc1)Cc1ccccc1)Cc1ccccc1)Cc1ccccc1 [Compound 28] (H-[Nlys][Nphe][Nlys][Nphe][Nlys][Nphe][Nlys][Nphe][Nlys][Nphe][Nlys][Nphe]-NH2)"
unitspec = "µg/mL"
relationsign = "="
readoutvalue = 128


Hello, the source for this data is paper PMC7481290, in case you need it.
